Hello, the source for this data is paper PMC6352937, in case you need it.

# pIC50 listing for each entry below
tested-system: PP2Ac
assay-protocol: Protein phosphatase assay with 32P-MLC20, native PP2Ac
settings: native PP2Ac from rabbit skeletal muscle; 1 µM 32P-MLC20; 10 min preincubation; mean ± SD
In textbook form, pIC50 equals minus log to base ten of the concentration in mol/L.

Examples with their reported pIC50 follow.
{"compound": "O=C(OC[C@H]1OC(O)[C@@H]2OC(=O)c3cc(O)c(O)c(O)c3-c3c(cc(O)c(O)c3O)C(=O)O[C@H]2[C@@H]1OC(=O)c1cc(O)c(O)c(O)c1)c1cc(O)c(O)c(O)c1 (some centres unmarked)", "measured-number": 4.19}
{"compound": "O=C(O[C@H]1[C@@H]2OC(=O)c3cc(O)c(O)c(O)c3-c3c(cc(O)c(O)c3O)C(=O)OC[C@H]2OC(O)[C@@H]1OC(=O)c1cc(O)c(O)c(O)c1)c1cc(O)c(O)c(O)c1 (some centres unmarked)", "measured-number": 4.71}

Query block: GET pIC50 where system = PP2Ac and item = O=C(OC[C@H]1O[C@@H](OC(=O)c2cc(O)c(O)c(O)c2)[C@@H]2OC(=O)c3cc(O)c(O)c(O)c3-c3c(cc(O)c(O)c3O)C(=O)O[C@H]2[C@@H]1OC(=O)c1cc(O)c(O)c(O)c1)c1cc(O)c(O)c(O)c1
Result block: 4.47

---

tested-system: rPP1cδ (Homo sapiens, UniProt P62140)
Construct: hexahistidine
Sequence (P62140 whole entry): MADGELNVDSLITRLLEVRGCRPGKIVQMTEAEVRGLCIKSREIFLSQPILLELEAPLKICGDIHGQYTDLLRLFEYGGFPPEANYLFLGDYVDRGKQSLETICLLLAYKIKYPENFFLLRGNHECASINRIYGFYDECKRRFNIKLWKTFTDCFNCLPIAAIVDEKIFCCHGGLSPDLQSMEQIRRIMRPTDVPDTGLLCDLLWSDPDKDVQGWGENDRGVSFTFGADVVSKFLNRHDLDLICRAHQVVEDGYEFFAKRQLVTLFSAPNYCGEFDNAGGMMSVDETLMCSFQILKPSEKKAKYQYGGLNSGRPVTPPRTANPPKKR
assay-protocol: Protein phosphatase assay, recombinant rPP1cδ
settings: purified recombinant hexahistidine-tagged PP1cδ
metric: IC50

Query block: Query IC50 for O=C(O[C@H]1[C@@H]2OC(=O)c3cc(O)c(O)c(O)c3-c3c(cc(O)c(O)c3O)C(=O)OC[C@H]2OC(O)[C@@H]1OC(=O)c1cc(O)c(O)c(O)c1)c1cc(O)c(O)c(O)c1 (stereo partly shown)
Result block: 130 nM

---

tested-system: rPP1cδ (Homo sapiens, UniProt P62140)
Construct: hexahistidine
assay-protocol: Surface plasmon resonance (SPR)
settings: rPP1cδ immobilised on CM5 chip; 1:1 interaction model
metric: pKd
In textbook form, pKd equals minus log to base ten of the concentration in mol/L.

Query block: Query pKd for O=C(O[C@H]1[C@@H]2OC(=O)c3cc(O)c(O)c(O)c3-c3c(cc(O)c(O)c3O)C(=O)OC[C@H]2OC(O)[C@@H]1OC(=O)c1cc(O)c(O)c(O)c1)c1cc(O)c(O)c(O)c1 (stereo partly shown)
Result block: 6.51

---

tested-system: FLAG-MYPT1-PP1cδ complex (Homo sapiens)
Construct: its associated proteins (such as PP1cδ) were isolated from cell lysates
Sequence (P62140 2-327 limits assumed): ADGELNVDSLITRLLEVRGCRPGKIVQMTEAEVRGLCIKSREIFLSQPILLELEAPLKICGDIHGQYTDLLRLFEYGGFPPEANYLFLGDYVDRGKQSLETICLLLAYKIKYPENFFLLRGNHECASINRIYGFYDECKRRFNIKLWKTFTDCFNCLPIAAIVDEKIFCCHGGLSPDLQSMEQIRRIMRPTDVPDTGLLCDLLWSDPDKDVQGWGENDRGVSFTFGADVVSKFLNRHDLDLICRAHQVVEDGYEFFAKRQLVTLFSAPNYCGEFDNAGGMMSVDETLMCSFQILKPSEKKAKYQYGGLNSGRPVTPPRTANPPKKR
Sequence (O14974 whole entry partner): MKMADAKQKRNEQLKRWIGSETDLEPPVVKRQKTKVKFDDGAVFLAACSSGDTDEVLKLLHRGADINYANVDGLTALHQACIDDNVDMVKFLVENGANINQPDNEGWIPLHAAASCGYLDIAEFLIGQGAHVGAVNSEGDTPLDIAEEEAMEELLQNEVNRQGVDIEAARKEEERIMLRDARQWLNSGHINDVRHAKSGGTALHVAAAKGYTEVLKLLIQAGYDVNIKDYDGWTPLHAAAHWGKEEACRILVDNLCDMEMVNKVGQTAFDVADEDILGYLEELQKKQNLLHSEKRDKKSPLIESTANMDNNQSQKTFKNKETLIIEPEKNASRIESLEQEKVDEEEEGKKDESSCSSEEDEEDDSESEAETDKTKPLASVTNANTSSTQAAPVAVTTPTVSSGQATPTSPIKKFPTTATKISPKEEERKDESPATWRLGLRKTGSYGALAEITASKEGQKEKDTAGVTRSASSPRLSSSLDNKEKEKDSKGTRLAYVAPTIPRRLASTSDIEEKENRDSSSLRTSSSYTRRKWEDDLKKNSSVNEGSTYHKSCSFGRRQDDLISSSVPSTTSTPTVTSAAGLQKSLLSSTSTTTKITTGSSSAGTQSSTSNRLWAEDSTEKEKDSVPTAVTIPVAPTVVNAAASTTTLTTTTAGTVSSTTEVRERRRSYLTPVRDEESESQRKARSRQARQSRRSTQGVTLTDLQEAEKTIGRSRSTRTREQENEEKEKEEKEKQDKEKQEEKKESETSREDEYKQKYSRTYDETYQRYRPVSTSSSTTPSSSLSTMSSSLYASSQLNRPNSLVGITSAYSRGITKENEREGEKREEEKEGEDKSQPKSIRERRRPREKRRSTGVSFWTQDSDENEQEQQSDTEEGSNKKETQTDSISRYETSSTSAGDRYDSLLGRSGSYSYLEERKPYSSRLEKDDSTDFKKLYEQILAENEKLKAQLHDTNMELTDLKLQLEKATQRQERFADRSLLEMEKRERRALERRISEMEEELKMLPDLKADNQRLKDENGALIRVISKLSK
assay-protocol: Protein phosphatase assay, myosin phosphatase holoenzyme
settings: holoenzyme ~9 nM
metric: IC50

Query block: Query IC50 for O=C(O[C@H]1[C@@H]2OC(=O)c3cc(O)c(O)c(O)c3-c3c(cc(O)c(O)c3O)C(=O)OC[C@H]2OC(O)[C@@H]1OC(=O)c1cc(O)c(O)c(O)c1)c1cc(O)c(O)c(O)c1 (stereo partly shown)
Result block: 110 nM

---

tested-system: PP1c
assay-protocol: Protein phosphatase assay with 32P-MLC20, native PP1c
settings: native PP1c from rabbit skeletal muscle; 1 µM 32P-MLC20; 10 min preincubation; mean ± SD
metric: pIC50
In textbook form, pIC50 equals minus log to base ten of the concentration in mol/L.

Query block: Query pIC50 for O=C(O[C@H]1[C@@H]2OC(=O)c3cc(O)c(O)c(O)c3-c3c(cc(O)c(O)c3O)C(=O)OC[C@H]2OC(O)[C@@H]1OC(=O)c1cc(O)c(O)c(O)c1)c1cc(O)c(O)c(O)c1 (some centres unmarked) [tellimagrandin I]
Result block: 6.70

Query block: Query pIC50 for O=C(OC[C@H]1O[C@@H](OC(=O)c2cc(O)c(O)c(O)c2)[C@@H]2OC(=O)c3cc(O)c(O)c(O)c3-c3c(cc(O)c(O)c3O)C(=O)O[C@H]2[C@@H]1OC(=O)c1cc(O)c(O)c(O)c1)c1cc(O)c(O)c(O)c1 [mahtabin A]
Result block: 6.39

Query block: Query pIC50 for O=C(O[C@@H]1O[C@@H]2COC(=O)c3cc(O)c(O)c(O)c3-c3c(cc(O)c(O)c3O)C(=O)O[C@H]2[C@H](O)[C@H]1OC(=O)c1cc(O)c(O)c(O)c1)c1cc(O)c(O)c(O)c1 [GHG]
Result block: 5.85

Query block: Query pIC50 for O=C(OC[C@H]1OC(O)[C@@H]2OC(=O)c3cc(O)c(O)c(O)c3-c3c(cc(O)c(O)c3O)C(=O)O[C@H]2[C@@H]1OC(=O)c1cc(O)c(O)c(O)c1)c1cc(O)c(O)c(O)c1 (some centres unmarked) [praecoxin B]
Result block: 6.10

---

tested-system: rPP1cα (Homo sapiens, UniProt P62136)
Construct: FLAG
Sequence (P62136 whole entry): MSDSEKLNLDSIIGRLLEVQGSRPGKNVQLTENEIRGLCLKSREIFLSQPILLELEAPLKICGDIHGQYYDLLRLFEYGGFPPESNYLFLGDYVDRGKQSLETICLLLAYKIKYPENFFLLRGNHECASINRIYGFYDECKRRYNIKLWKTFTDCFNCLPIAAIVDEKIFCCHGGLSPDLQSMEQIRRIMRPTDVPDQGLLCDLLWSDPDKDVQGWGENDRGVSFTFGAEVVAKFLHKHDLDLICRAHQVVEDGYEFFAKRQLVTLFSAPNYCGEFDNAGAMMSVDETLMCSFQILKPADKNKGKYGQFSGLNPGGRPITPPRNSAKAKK
assay-protocol: Protein phosphatase assay, recombinant rPP1cα
settings: purified recombinant FLAG-tagged PP1cα
metric: IC50 (nM)
Report the value in nM with no unit label.

Query block: Query IC50 for O=C(O[C@H]1[C@@H]2OC(=O)c3cc(O)c(O)c(O)c3-c3c(cc(O)c(O)c3O)C(=O)OC[C@H]2OC(O)[C@@H]1OC(=O)c1cc(O)c(O)c(O)c1)c1cc(O)c(O)c(O)c1 (stereo partly shown) [tellimagrandin I]
Result block: 230
